The measurements presented in this section are drawn from paper PMC10807611.

test: Plasma pharmacokinetics on cycle 1 day 1; format: in vivo; conditions: human, in vivo, po, 225 mg
measured.endpoint: Tmax (h)
Give bare numbers, in h.

In: What Tmax value was documented for this compound, C=CCn1c(=O)c2cnc(Nc3ccc(N4CCN(C)CC4)cc3)nc2n1-c1cccc(C(C)(C)O)n1 [Adavosertib, adavosertib] ?
Out: 3

---

test: Plasma pharmacokinetics on cycle 1 day 1; type: in vivo; details: human, plasma, iv, 1000 mg/m2
measured.endpoint: Tmax (min)
One number for each entry, in min.

In: What Tmax value was documented for this molecule, O=C(/C=C/c1cccc(S(=O)(=O)Nc2ccccc2)c1)NO [Belinostat, belinostat] ?
Out: 24

---

experiment: Plasma pharmacokinetics on cycle 1 day 1; format: in vivo; conditions: human, plasma, iv, 1000 mg/m2
measured.endpoint: clearance (mL/min)
One number for each entry, in mL/min.

In: What clearance value was documented for this compound, O=C(/C=C/c1cccc(S(=O)(=O)Nc2ccccc2)c1)NO ?
Out: 657

---

test: Plasma pharmacokinetics on cycle 1 day 1; type: in vivo; conditions: human, plasma, iv, 800 mg/m2
measured.endpoint: clearance (mL/min)
Numbers only, in mL/min.

In: What clearance value was documented for this compound, O=C(/C=C/c1cccc(S(=O)(=O)Nc2ccccc2)c1)NO [Belinostat, belinostat] ?
Out: 643

---

assay: Plasma pharmacokinetics on cycle 1 day 1; type: in vivo; settings: human, in vivo, Cmax concentrations
measured.endpoint: Cmax

In: What Cmax value was documented for this molecule, C=CCn1c(=O)c2cnc(Nc3ccc(N4CCN(C)CC4)cc3)nc2n1-c1cccc(C(C)(C)O)n1 ?
Out: ~500 nM

---

assay: Plasma pharmacokinetics on cycle 1 day 1; type: in vivo; settings: human, in vivo, po, 225 mg, T1/2
measured.endpoint: half-life (h)
Answers are plain numbers, in h.

In: What half-life value was documented for this compound, C=CCn1c(=O)c2cnc(Nc3ccc(N4CCN(C)CC4)cc3)nc2n1-c1cccc(C(C)(C)O)n1 [Adavosertib, adavosertib] ?
Out: 9.7
